Test system: HeLa Kyoto;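 also: synchronized HeLa Kyoto cells, proteins quantified by TMT10plex mass spectrometry, three biological replicates, mitosis taken 0.5 h after nocodazole release, G1/S directly after double thymidine block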
assay.summary: thermal stability score vs G1/S (z-score of summed log2 fold changes over temperatures); higher = more thermally stable than in G1/S
conditions: cell cycle stage: mitosis
quantity.kind: thermal stability score
// no unit, no text: just the number

Known thermal stability score results, listed for orientation:
{"sequence.chain": "MARCERLRGAALRDVLGRAQGVLFDCDGVLWNGERAVPGAPELLERLARAGKAALFVSNNSRRARPELALRFARLGFGGLRAEQLFSSALCAARLLRQRLPGPPDAPGAVFVLGGEGLRAELRAAGLRLAGDPSAGDGAAPRVRAVLVGYDEHFSFAKLREACAHLRDPECLLVATDRDPWHPLSDGSRTPGTGSLAAAVETASGRQALVVGKPSPYMFECITENFSIDPARTLMVGDRLETDILFGHRCGMTTVLTLTGVSRLEEAQAYLAAGQHDLVPHYYVESIADLTEGLED [PDXP]", "recorded.value": -1.83}
{"sequence.chain": "MSDEGSRGSRLPLALPPASQGCSSGGGGGGSSAGGSGNSRPPRNLQGLLQMAITAGSEEPDPPPEPMSEERRQWLQEAMSAAFRGQREEVEQMKSCLRVLSQPMPPTAGEAEQAADQQEREGALELLADLCENMDNAADFCQLSGMHLLVGRYLEAGAAGLRWRAAQLIGTCSQNVAAIQEQVLGLGALRKLLRLLDRDACDTVRVKALFAISCLVREQEAGLLQFLRLDGFSVLMRAMQQQVQKLKVKSAFLLQNLLVGHPEHKGTLCSMGMVQQLVALVRTEHSPFHEHVLGALCSLVTDFPQGVRECREPELGLEELLRHRCQLLQQHEEYQEELEFCEKLLQTCFSSPADDSMDR [HSPBP1]", "recorded.value": 0.675}
{"sequence.chain": "MARNAEKAMTALARFRQAQLEEGKVKERRPFLASECTELPKAEKWRRQIIGEISKKVAQIQNAGLGEFRIRDLNDEINKLLREKGHWEVRIKELGGPDYGKVGPKMLDHEGKEVPGNRGYKYFGAAKDLPGVRELFEKEPLPPPRKTRAELMKAIDFEYYGYLDEDDGVIVPLEQEYEKKLRAELVEKWKAEREARLARGEKEEEEEEEEEINIYAVTEEESDEEGSQEKGGDDSQQKFIAHVPVPSQQEIEEALVRRKKMELLQKYASETLQAQSEEARRLLGY [ISY1]", "recorded.value": -1.6}
{"sequence.chain": "MATGQKLMRAVRVFEFGGPEVLKLRSDIAVPIPKDHQVLIKVHACGVNPVETYIRSGTYSRKPLLPYTPGSDVAGVIEAVGDNASAFKKGDRVFTSSTISGGYAEYALAADHTVYKLPEKLDFKQGAAIGIPYFTAYRALIHSACVKAGESVLVHGASGGVGLAACQIARAYGLKILGTAGTEEGQKIVLQNGAHEVFNHREVNYIDKIKKYVGEKGIDIIIEMLANVNLSKDLSLLSHGGRVIVVGSRGTIEINPRDTMAKESSIIGVTLFSSTKEEFQQYAAALQAGMEIGWLKPVIGSQYPLEKVAEAHENIIHGSGATGKMILLL [CRYZ]", "recorded.value": -0.806}
{"sequence.chain": "MAVPGCNKDSVRAGCKKCGYPGHLTFECRNFLRVDPKRDIVLDVSSTSSEDSDEENEELNKLQALQEKRINEEEEKKKEKSKEKIKLKKKRKRSYSSSSTEEDTSKQKKQKYQKKEKKKEKKSKSKKGKHHKKEKKKRKKEKHSSTPNSSEFSRK [SREK1IP1]", "recorded.value": -4.29}

Name the recorded thermal stability score of the sequence listed here: MRLVILDNYDLASEWAAKYICNRIIQFKPGQDRYFTLGLPTGSTPLGCYKKLIEYHKNGHLSFKYVKTFNMDEYVGLPRNHPESYHSYMWNNFFKHIDIDPNNAHILDGNAADLQAECDAFENKIKEAGGIDLFVGGIGPDGHIAFNEPGSSLVSRTRLKTLAMDTILANAKYFDGDLSKVPTMALTVGVGTVMDAREVMILITGAHKAFALYKAIEEGVNHMWTVSAFQQHPRTIFVCDEDATLELRVKTVKYFKGLMHVHNKLVDPLFSMKDGN [GNPDA2]
-0.194

// fetch thermal stability score given entry MVDRLANSEANTRRISIVENCFGAAGQPLTIPGRVLIGEGVLTKLCRKKPKARQFFLFNDILVYGNIVIQKKKYNKQHIIPLENVTIDSIKDEGDLRNGWLIKTPTKSFAVYAATATEKSEWMNHINKCVTDLLSKSGKTPSNEHAAVWVPDSEATVCMRCQKAKFTPVNRRHHCRKCGFVVCGPCSEKRFLLPSQSSKPVRICDFCYDLLSAGDMATCQPARSDSYSQSLKSPLNDMSDDDDDDDSSD [PLEKHF2]
0.829

Give me measured thermal stability score, please, for this sequence: MSRPVRNRKVVDYSQFQESDDADEDYGRDSGPPTKKIRSSPREAKNKRRSGKNSQEDSEDSEDKDVKTKKDDSHSAEDSEDEKEDHKNVRQQRQAASKAASKQREMLMEDVGSEEEQEEEDEAPFQEKDSGSDEDFLMEDDDDSDYGSSKKKNKKMVKKSKPERKEKKMPKPRLKATVTPSPVKGKGKVGRPTASKASKEKTPSPKEEDEEPESPPEKKTSTSPPPEKSGDEGSEDEAPSGED [NUCKS1]
1.15

Using known records, supply thermal stability score for MDPAARVVRALWPGGCALAWRLGGRPQPLLPTQSRAGFAGAAGGPSPVAAARKGSPRLLGAAALALGGALGLYHTARWHLRAQDLHAERSAAQLSLSSRLQLTLYQYKTCPFCSKVRAFLDFHALPYQVVEVNPVRRAEIKFSSYRKVPILVAQEGESSQQLNDSSVIISALKTYLVSGQPLEEIITYYPAMKAVNEQGKEVTEFGNKYWLMLNEKEAQQVYGGKEARTEEMKWRQWADDWLVHLISPNVYRTPTEALASFDYIVREGKFGAVEGAVAKYMGAAAMYLISKRLKSRHRLQDNVREDLYEAADKWVAAVGKDRPFMGGQKPNLADLAVYGVLRVMEGLDAFDDLMQHTHIQPWYLRVERAITEASPAH [PTGES2]
0.796

Please report thermal stability score for the following sequence: MGVQPPNFSWVLPGRLAGLALPRLPAHYQFLLDLGVRHLVSLTERGPPHSDSCPGLTLHRLRIPDFCPPAPDQIDRFVQIVDEANARGEAVGVHCALGFGRTGTMLACYLVKERGLAAGDAIAEIRRLRPGSIETYEQEKAVFQFYQRTK [DUSP23]
-0.468

Tell me measured thermal stability score for MGSQGSPVKSYDYLLKFLLVGDSDVGKGEILESLQDGAAESPYAYSNGIDYKTTTILLDGRRVKLELWDTSGQGRFCTIFRSYSRGAQGILLVYDITNRWSFDGIDRWIKEIDEHAPGVPRILVGNRLHLAFKRQVPTEQARAYAEKNCMTFFEVSPLCNFNVIESFTELSRIVLMRHGMEKIWRPNRVFSLQDLCCRAIVSCTPVHLIDKLPLPVTIKSHLKSFSMANGMNAVMMHGRSYSLASGAGGGGSKGNSLKRSKSIRPPQSPPQNCSRSNCKIS [RAB40C] please.
-0.612

Numbers sourced from the supplement of paper PMC5998384.
